Experimental Protocol: Tmax in fasted Sprague-Dawley rat at 100 mg/kg, po measured upto 12 hrs by LC-MS/MS analysis
Format: ADME, organism-based
Condition Details: in vivo
Observation Type: Tmax (h)

{"Mol": "Cc1ccn(-c2nc(Nc3ccc(F)cc3)c3ccn(C)c3n2)n1", "Value Unit": "h", "Tmax": 2.67}
{"Mol": "Cc1cc(C)n(-c2nc(Nc3cccc(Br)c3)c3ccn(C)c3n2)n1", "Value Unit": "h", "Tmax": 2.67}

====

Experimental Protocol: AUC (0 to infinity) in fasted Sprague-Dawley rat at 2 mg/kg, iv measured upto 12 hrs by LC-MS/MS analysis
Assay type: ADME, organism-based
Set-up: time < 12 hrs, dose 2 mg/kg, route iv
Condition Details: Sprague-Dawley, in vivo
Observation Type: AUC(0-inf) (ng·h/mL)
Write the answer as a number in ng·h/mL, unit excluded.

Enquiry: Name the recorded AUC(0-inf) of the molecule listed here: Cc1cc(C)n(-c2nc(Nc3cccc(Br)c3)c3ccn(C)c3n2)n1
Return: 1370
